The values you see were collected from patent US20060079550A1.

# study_target: aspartyl proteases, in particular, beta-secretase
# assay_method_text: Ki of the compounds listed in Tables 1 and 2 (no method described)
# Type: biochemical
# condition_summary: Table 1, compounds of formula Ia, W is -(CH2)n-
readout_type: Ki (µM)

Please review the following examples before continuing.
{"columns": ["compound", "measured"],
 "data": [
  ["Cc1ccc(S(=O)(=O)N(CC(C)C)[C@@H](CO)CCCCNC(=O)OCC2c3ccccc3-c3ccccc32)cc1 [Compound No. 124]", 0.208],
  ["CC(C)CN([C@@H](CCCCNC(=O)CSc1ccccc1)C(=O)O)S(=O)(=O)c1ccc([N+](=O)[O-])cc1 [Compound No. 154]", 0.0102],
  ["CC1(C)[C@@H]2CC[C@@]1(CS(=O)(=O)NCCCC[C@H](NC(=O)OCC1c3ccccc3-c3ccccc31)C(=O)O)C(=O)C2 [Compound No. 35]", 33]
]}

I. Nc1ccc(S(=O)(=O)NCCC[C@H](NC(=O)OCC2c3ccccc3-c3ccccc32)C(=O)O)cc1 [Compound No. 69]
II. O=C(N[C@@H](CCCCNS(=O)(=O)c1ccc(Br)cc1)C(=O)O)OCC1c2ccccc2-c2ccccc21 [Compound No. 16]
Query: Between I and II , whose measured Ki reads higher? Output the label that corresponds to your choice.
Response: I

A. Cc1ccc(S(=O)(=O)N(CC(C)C)C(CCCNC(=O)OCC2c3ccccc3-c3ccccc32)C(=O)O)cc1 (racemic) [Compound No. 6]
B. Nc1ccccc1S(=O)(=O)N[C@@H](CCCCNC(=O)OCC1c2ccccc2-c2ccccc21)C(=O)O [Compound No. 105]
Query: For the pair A and B , which entry has the numerically smaller recorded Ki? Output the label that corresponds to your choice.
Response: A

a. O=C(N[C@@H](CCCCNS(=O)(=O)c1cccc2cccnc12)C(=O)O)OCC1c2ccccc2-c2ccccc21 [Compound No. 28]
b. Cc1ccc(S(=O)(=O)N(CC2CC2)[C@@H](CCCCNC(=O)OCC2c3ccccc3-c3ccccc32)C(=O)O)cc1 [Compound No. 43]
c. O=C(N[C@@H](CCCCNS(=O)(=O)c1ccccc1Br)C(=O)O)OCC1c2ccccc2-c2ccccc21 [Compound No. 24]
d. Cc1ccc(S(=O)(=O)N(CC(C)C)[C@@H](CCCCNC(=O)CC2c3ccccc3-c3ccccc32)C(=O)O)cc1 [compound 84]
e. Cc1ccc(S(=O)(=O)NCCC[C@H](NC(=O)OCC2c3ccccc3-c3ccccc32)C(=O)O)cc1 [Compound No. 149]
Query: rank_up(items): orders items by reported Ki in ascending numerical order. Please list the labels in the order you were asked to rank them.
Response: b, d, e, a, c
(b: 0.0039 µM, d: 0.0897 µM, e: 10.1 µM, a: 15 µM, c: 36 µM)

a. O=C(N[C@@H](CCCCNS(=O)(=O)c1ccc(I)cc1)C(=O)O)OCC1c2ccccc2-c2ccccc21 [Compound No. 64]
b. Cc1ccc(S(=O)(=O)N(CC(C)C)[C@@H](CCCCNC(=O)CCc2c[nH]c3ccccc23)C(=O)O)cc1 [compound 89]
Query: Between a and b , whose measured Ki reads higher? Output the label that corresponds to your choice.
Response: a
